Data provenance is PubChem BioAssay AID1963963.

Some compounds, each annotated with its measured IC50.
System: 958667-338-R-J2-PDC tumor spheroids viability
test_description: Anticancer human tumor 958667-338-R-J2-PDC patient-derived colon adenocarcinoma cell line growth inhibition [PI3K]
assay_conditions: curve of first compound; second compound 0.316 µM; spheroids with HUVEC and MSC

// worked examples, IC50 included
{"compound": "Cn1cnc2c(F)c(Nc3ccc(Br)cc3Cl)c(C(=O)NOCCO)cc21 + COc1c(OCCCN2CCOCC2)ccc2c3n(c(=NC(=O)c4cnc(N)nc4)nc12)CCN3", "IC50": "< 9.49 nM"}
{"compound": "CC(=O)c1c(C)c2cnc(Nc3ccc(N4CCNCC4)cn3)nc2n(C2CCCC2)c1=O + CC(Nc1ncnc2nc[nH]c12)c1cc2cccc(Cl)c2c(=O)n1-c1ccccc1", "IC50": "> 100 nM"}

From here, focus on the item given below.
Enquiry: Form field - read-out: IC50; system: 958667-338-R-J2-PDC tumor spheroids viability; submitted item: C#Cc1c(F)ccc2cc(O)cc(-c3ncc4c(N5CC6CCC(C5)N6)nc(OCC56CCCN5CC(F)C6)nc4c3F)c12 (stereo not drawn) + CC(Nc1ccc2c(c1)OCCn1cc(N3C(=O)OCC3C(F)F)nc1-2)C(N)=O
Return: 3470 nM

====

Some compounds, each annotated with its measured viability, T/C.
System: 958667-338-R-J2-PDC tumor spheroids viability
test_description: Anticancer human tumor 958667-338-R-J2-PDC cell line growth inhibition [PI3K];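 note: spheroids exposed to compounds for seven days before readout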
assay_conditions: second compound 0.01 µM; first compound 0.1 µM; stronger effect = lower value; spheroids with HUVEC and MSC
API: value field is a number in %; no unit string.

{"compound": "CC(Cn1ccc(-c2ccc(C#N)c(Cl)c2)n1)NC(=O)c1cc(C(C)O)[nH]n1 (stereo unspecified) + COc1c(OCCCN2CCOCC2)ccc2c3n(c(=NC(=O)c4cnc(N)nc4)nc12)CCN3", "viability, T/C / %": 83.1}
{"compound": "CC1(C)CCC(Nc2ncc(C(F)(F)F)c(-c3c[nH]c4c(P(C)(C)=O)c(C#N)ccc34)n2)CN1 (stereo unspecified) + CC(Nc1ccc2c(c1)OCCn1cc(N3C(=O)OCC3C(F)F)nc1-2)C(N)=O", "viability, T/C / %": 109}
{"compound": "Cn1ncc(Cl)c1-c1cc(C(=O)NC(CN)Cc2cccc(F)c2)sc1Cl (stereo unspecified) + CC(Nc1ccc2c(c1)OCCn1cc(N3C(=O)OCC3C(F)F)nc1-2)C(N)=O", "viability, T/C / %": 104}
{"compound": "Cn1ncc(Cl)c1-c1cc(C(=O)NC(CN)Cc2cccc(F)c2)sc1Cl (stereo unspecified) + COc1c(OCCCN2CCOCC2)ccc2c3n(c(=NC(=O)c4cnc(N)nc4)nc12)CCN3", "viability, T/C / %": 76.7}
{"compound": "CCN1CCN(Cc2ccc(Nc3ncc(F)c(-c4cc(F)c5nc(C)n(C(C)C)c5c4)n3)nc2)CC1 + COc1c(OCCCN2CCOCC2)ccc2c3n(c(=NC(=O)c4cnc(N)nc4)nc12)CCN3", "viability, T/C / %": 65.5}

Enquiry: Form field - read-out: viability, T/C; system: 958667-338-R-J2-PDC tumor spheroids viability; submitted item: CC(C)n1nc(-c2ccc3oc(N)nc3c2)c2c(N)ncnc21 + COc1c(OCCCN2CCOCC2)ccc2c3n(c(=NC(=O)c4cnc(N)nc4)nc12)CCN3
Return: 31.3

====

Some molecules, each annotated with its measured IC50.
Tested on: 958667-338-R-J2-PDC tumor spheroids viability
test_description: Anticancer human tumor 958667-338-R-J2-PDC cell line growth inhibition [PI3K];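 note: spheroids exposed to compounds for seven days before readout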
assay_conditions: curve of first compound; second compound 0.1 µM; spheroids with HUVEC and MSC

// worked examples, IC50 included
{"molecule": "C#Cc1c(F)ccc2cc(O)cc(-c3ncc4c(N5CC6CCC(C5)N6)nc(OCC56CCCN5CC(F)C6)nc4c3F)c12 (stereo not drawn) + CC(Nc1ncnc2nc[nH]c12)c1cc2cccc(Cl)c2c(=O)n1-c1ccccc1", "IC50": "> 10 µM"}
{"molecule": "C=CC(=O)N1CCN(c2nc(=O)n(-c3c(C)ccnc3C(C)C)c3nc(-c4c(O)cccc4F)c(F)cc23)C(C)C1 (stereo not drawn) + CC(Nc1ccc2c(c1)OCCn1cc(N3C(=O)OCC3C(F)F)nc1-2)C(N)=O", "IC50": "> 10 µM"}

From here, focus on the item given below.
Enquiry: # IC50 lookup, item Cn1nccc1Nc1nccc(-c2ccn(C(CO)c3ccc(Cl)c(F)c3)c(=O)c2)n1 (stereo not drawn) + CC(Nc1ccc2c(c1)OCCn1cc(N3C(=O)OCC3C(F)F)nc1-2)C(N)=O
Return: 6.57 µM

====

Tested on: 958667-338-R-J2-PDC tumor spheroids viability
test_description: Anticancer human tumor 958667-338-R-J2-PDC cell line growth inhibition [PI3K];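 note: spheroids exposed to compounds for seven days before readout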
assay_conditions: second compound 0.01 µM; first compound 0.1 µM; stronger effect = lower value; spheroids with HUVEC and MSC
Some molecules, each annotated with its measured viability, T/C.

// worked examples, viability, T/C included
{"molecule": "CNC(=O)c1ccc(N2C(=S)N(c3ccc(C#N)c(C(F)(F)F)c3)C(=O)C2(C)C)cc1F + CC(Nc1ccc2c(c1)OCCn1cc(N3C(=O)OCC3C(F)F)nc1-2)C(N)=O", "viability, T/C": "102%"}
{"molecule": "CC1(C)CCC(CN2CCN(c3ccc(C(=O)NS(=O)(=O)c4ccc(NCC5CCOCC5)c([N+](=O)[O-])c4)c(Oc4cnc5[nH]ccc5c4)c3)CC2)=C(c2ccc(Cl)cc2)C1 + COc1c(OCCCN2CCOCC2)ccc2c3n(c(=NC(=O)c4cnc(N)nc4)nc12)CCN3", "viability, T/C": "85.9%"}

From here, focus on the item given below.
Enquiry: # viability, T/C lookup, item CC(=O)c1c(C)c2cnc(Nc3ccc(N4CCNCC4)cn3)nc2n(C2CCCC2)c1=O + COc1c(OCCCN2CCOCC2)ccc2c3n(c(=NC(=O)c4cnc(N)nc4)nc12)CCN3
Return: 69.9%

====

System: 958667-338-R-J2-PDC tumor spheroids viability
test_description: Anticancer human tumor 958667-338-R-J2-PDC cell line growth inhibition [PI3K];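 note: spheroids exposed to compounds for seven days before readout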
assay_conditions: curve of first compound; second compound 0.1 µM; spheroids with HUVEC and MSC
pIC50: −log10 of the molar value.
measured_endpoint: pIC50

{"compound": "C[C@@H](NC(=O)c1ncnc(N)c1Cl)c1ncc(C(=O)Nc2cc(C(F)(F)F)c(Cl)cn2)s1 + COc1c(OCCCN2CCOCC2)ccc2c3n(c(=NC(=O)c4cnc(N)nc4)nc12)CCN3", "pIC50": "< 5.00"}
{"compound": "CC(=O)c1c(C)c2cnc(Nc3ccc(N4CCNCC4)cn3)nc2n(C2CCCC2)c1=O + CC(Nc1ccc2c(c1)OCCn1cc(N3C(=O)OCC3C(F)F)nc1-2)C(N)=O", "pIC50": "< 7.00"}
{"compound": "C#Cc1c(F)ccc2cc(O)cc(-c3ncc4c(N5CC6CCC(C5)N6)nc(OCC56CCCN5CC(F)C6)nc4c3F)c12 (stereo unspecified) + CC(Nc1ccc2c(c1)OCCn1cc(N3C(=O)OCC3C(F)F)nc1-2)C(N)=O", "pIC50": 5.18}

Enquiry: # pIC50 lookup, item Cn1ncnc1[C@H]1c2n[nH]c(=O)c3cc(F)cc(c23)N[C@@H]1c1ccc(F)cc1 + COc1c(OCCCN2CCOCC2)ccc2c3n(c(=NC(=O)c4cnc(N)nc4)nc12)CCN3
Return: < 7.00

Enquiry: How about this compound: CC1(C)CCC(Nc2ncc(C(F)(F)F)c(-c3c[nH]c4c(P(C)(C)=O)c(C#N)ccc34)n2)CN1 (stereo unspecified) + CC(Nc1ncnc2nc[nH]c12)c1cc2cccc(Cl)c2c(=O)n1-c1ccccc1
Return: 5.63

====

Some molecules, each annotated with its measured viability, T/C.
Test system: 958667-338-R-J2-PDC tumor spheroids viability
test_description: Anticancer human tumor 958667-338-R-J2-PDC cell line growth inhibition [PI3K];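 note: spheroids exposed to compounds for seven days before readout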
assay_conditions: second compound 0.01 µM; first compound 0.1 µM; stronger effect = lower value; spheroids with HUVEC and MSC
API: value field is a number in %; no unit string.

// worked examples, viability, T/C included
{"molecule": "Cn1ncnc1[C@H]1c2n[nH]c(=O)c3cc(F)cc(c23)N[C@@H]1c1ccc(F)cc1 + CC(Nc1ccc2c(c1)OCCn1cc(N3C(=O)OCC3C(F)F)nc1-2)C(N)=O", "units_of_measure": "%", "viability, T/C": 114}
{"molecule": "CCCS(=O)(=O)Nc1ccc(F)c(C(=O)c2c[nH]c3ncc(-c4ccc(Cl)cc4)cc23)c1F + CC(Nc1ccc2c(c1)OCCn1cc(N3C(=O)OCC3C(F)F)nc1-2)C(N)=O", "units_of_measure": "%", "viability, T/C": 111}
{"molecule": "C=CC(=O)N1CCN(c2nc(=O)n(-c3c(C)ccnc3C(C)C)c3nc(-c4c(O)cccc4F)c(F)cc23)C(C)C1 (stereo unspecified) + CC(Nc1ccc2c(c1)OCCn1cc(N3C(=O)OCC3C(F)F)nc1-2)C(N)=O", "units_of_measure": "%", "viability, T/C": 100}
{"molecule": "C=CC(=O)N1CCN(c2nc(=O)n(-c3c(C)ccnc3C(C)C)c3nc(-c4c(O)cccc4F)c(F)cc23)C(C)C1 (stereo unspecified) + COc1c(OCCCN2CCOCC2)ccc2c3n(c(=NC(=O)c4cnc(N)nc4)nc12)CCN3", "units_of_measure": "%", "viability, T/C": 103}
{"molecule": "CC(C)NCC(C(=O)N1CCN(c2ncnc3c2C(C)CC3O)CC1)c1ccc(Cl)cc1 (stereo unspecified) + COc1c(OCCCN2CCOCC2)ccc2c3n(c(=NC(=O)c4cnc(N)nc4)nc12)CCN3", "units_of_measure": "%", "viability, T/C": 73.9}

Enquiry: # viability, T/C lookup, item CC(Cn1ccc(-c2ccc(C#N)c(Cl)c2)n1)NC(=O)c1cc(C(C)O)[nH]n1 (stereo unspecified) + CC(Nc1ccc2c(c1)OCCn1cc(N3C(=O)OCC3C(F)F)nc1-2)C(N)=O
Return: 106
